Measured on: full length human TREX1 (Homo sapiens, UniProt Q9NSU2)
Construct: N-terminally His-Tev tagged full length human TREX1; His-Tev (His tag with TEV protease site) (N)
Sequence (Q9NSU2 whole entry): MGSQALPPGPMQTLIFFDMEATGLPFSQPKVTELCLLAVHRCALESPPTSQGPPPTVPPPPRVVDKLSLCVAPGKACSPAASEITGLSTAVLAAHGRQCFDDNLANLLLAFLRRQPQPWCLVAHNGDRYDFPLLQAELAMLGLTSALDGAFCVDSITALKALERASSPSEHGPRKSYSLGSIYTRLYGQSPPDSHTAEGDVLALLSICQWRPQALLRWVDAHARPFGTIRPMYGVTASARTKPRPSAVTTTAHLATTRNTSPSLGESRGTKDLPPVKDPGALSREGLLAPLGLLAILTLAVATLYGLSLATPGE
Experiment: TREX1 Biochemical Assay (fluorescence assay, degradation of dsDNA substrate)
Experimental setup: 150 pM TREX1, 60 nM dsDNA substrate, 25 minutes at room temperature; read-out: hTREX1 EC50
pEC50: −log10 of the molar value.
Listing of recorded pEC50 by entry.

Illustrative cases are given below, each with its answer.
Smiles entry | pEC50
O=C(c1cccc(Cl)c1)N(Cc1cccnc1)Cc1cc(Cl)cc(Cl)c1 | < 5.00
O=C(c1ccc(Br)cc1)N(Cc1cccnc1)Cc1cc(Cl)cc(Cl)c1 | < 5.00
O=C(c1cc(F)cc(F)c1)N(Cc1cccnc1)[C@@H](c1cn[nH]c1)c1ccc(Cl)cc1Cl | 5.00 to 6.00
O=C(c1cccc(F)c1)N(Cc1cnccn1)Cc1ccc(Cl)cc1Cl | 5.00 to 6.00

Could you now consider this next compound?
Inquiry: # lookup: pEC50 of `O=C(c1ccc(-c2ccccc2)cc1)N(Cc1cccnc1)Cc1ccc(Cl)cc1Cl`
Reply text: < 5.00

* * *

Measured on: human TREX2 (residues M44-A279) (Homo sapiens)
Construct: human TREX2 (residues M44-A279, expressed in E. coli); His-Tev (His tag with TEV protease site) (N)
Sequence (Q9BQ50 44-279 isoform Q9BQ50-1): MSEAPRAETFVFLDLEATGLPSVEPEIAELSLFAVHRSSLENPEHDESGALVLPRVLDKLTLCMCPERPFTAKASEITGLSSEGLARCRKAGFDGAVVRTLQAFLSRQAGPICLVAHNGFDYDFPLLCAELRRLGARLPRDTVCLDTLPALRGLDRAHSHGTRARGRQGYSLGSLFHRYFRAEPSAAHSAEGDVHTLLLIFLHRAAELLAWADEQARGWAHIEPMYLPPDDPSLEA
Experiment: TREX2 Biochemical Assay (fluorescence assay, degradation of dsDNA substrate)
Experimental setup: 2.5 nM TREX2, 60 nM dsDNA substrate, 25 minutes at room temperature; read-out: hTREX2 EC50
Assay endpoint: EC50

Inquiry: Consider the molecule shown here: O=C(O)c1ccc(CN(Cc2ccccc2Cl)C(=O)c2cccc(F)c2)cn1 [Compound 151] What is its recorded EC50?
Reply text: 10 to 100 µM

* * *

Measured on: human TREX2 (residues M44-A279) (Homo sapiens, UniProt Q9BQ50)
Construct: human TREX2 (residues M44-A279, expressed in E. coli); His-Tev (His tag with TEV protease site) (N)
Experiment: TREX2 Biochemical Assay (fluorescence assay, degradation of dsDNA substrate)
Experimental setup: 2.5 nM TREX2, 60 nM dsDNA substrate, 25 minutes at room temperature; read-out: hTREX2 EC50
Listed here are molecules together with their documented EC50.

Some molecules with known EC50 results, for comparison:
Molecule | Measured on | Assay endpoint | Result
CC[C@@H](c1cccc(OC2COC2)c1Cl)N(Cc1ccc(C(=O)O)nc1)C(=O)c1cc(F)cc(F)c1 | human TREX2 (residues M44-A279) (Homo sapiens, UniProt Q9BQ50) | EC50 | 10 to 100 µM
O=C(c1cccc(Br)c1)N(Cc1cccnc1)Cc1cc(Cl)cc(Cl)c1 | human TREX2 (residues M44-A279) (Homo sapiens, UniProt Q9BQ50) | EC50 | > 100 µM
CCOc1cccc([C@@H](CC)N(Cc2ccc(C(=O)O)nc2)C(=O)c2cc(F)cc(F)c2)c1Cl | human TREX2 (residues M44-A279) (Homo sapiens, UniProt Q9BQ50) | EC50 | 1 to 10 µM
O=C(c1ccc(O)c(C(F)(F)F)c1)N(Cc1cccnc1)Cc1cc(Cl)cc(Cl)c1 | human TREX2 (residues M44-A279) (Homo sapiens, UniProt Q9BQ50) | EC50 | > 100 µM
CC(=O)Nc1ccc(CN(Cc2cccc(Cl)c2Cl)C(=O)c2cccc(F)c2)cn1 | human TREX2 (residues M44-A279) (Homo sapiens, UniProt Q9BQ50) | EC50 | > 100 µM
CC(C)[C@@H](c1ccc(Cl)cc1Cl)N(Cc1cccnc1)C(=O)c1cccc(F)c1 (single isomer, unassigned) | human TREX2 (residues M44-A279) (Homo sapiens, UniProt Q9BQ50) | EC50 | 10 to 100 µM
CC[C@H](c1cccc(OC)c1Cl)N(Cc1ccc(C(=O)O)nc1)C(=O)c1cc(F)cc(F)c1 | human TREX2 (residues M44-A279) (Homo sapiens, UniProt Q9BQ50) | EC50 | 1 to 10 µM
O=C(/C=C/c1ccco1)N(Cc1cccnc1)Cc1ccc(Cl)cc1Cl | human TREX2 (residues M44-A279) (Homo sapiens, UniProt Q9BQ50) | EC50 | > 100 µM

Inquiry: Please give the measured EC50 for this molecule: `NCC[C@@H](c1cccc(Cl)c1Cl)N(Cc1cccnc1)C(=O)c1cc(F)cc(F)c1`
Reply text: 10 to 100 µM

Inquiry: Please give the measured EC50 for this molecule: `O=C(c1cccc(F)c1)N(Cc1cccnc1)CC1CCCCC1`
Reply text: > 100 µM

Inquiry: I would be grateful if you could share the reported EC50 for CC[C@H](c1cccc(Cl)c1Cl)N(Cc1ccc(C(=O)O)nc1)C(=O)c1cc(F)cc(F)c1 [Compound 255] .
Reply text: < 1 µM

Inquiry: Looking for the measured EC50 of `COc1cccc([C@H](C)N(Cc2ccc(-c3ccn[nH]3)nc2)C(=O)c2cc(F)cc(F)c2)c1Cl` , can you help?
Reply text: 10 to 100 µM

Inquiry: If you can, please state the reported EC50 value of `O=C(Cc1ccccc1)N(Cc1cccnc1)Cc1ccc(Cl)cc1Cl` .
Reply text: > 100 µM

Inquiry: Item `CC[C@@H](c1cccc(OC)c1C(F)(F)F)N(Cc1ccc(C(=O)O)nc1)C(=O)c1cc(F)cc(F)c1` has what recorded EC50?
Reply text: 1 to 10 µM

Inquiry: Which EC50 reading was recorded for the molecule `O=C(c1ccc(F)c(F)c1)N(Cc1cccnc1)Cc1ccc(Cl)cc1Cl` ?
Reply text: > 100 µM

Inquiry: Please look up its EC50: `CC[C@H](c1cccc(OC)c1C(F)(F)F)N(Cc1ccc(C(=O)O)nc1)C(=O)c1cc(F)cc(F)c1`
Reply text: < 1 µM

Every entry's value here was drawn from patent US20230233541A1.
